Tested on: Platelet aggregation in dog PRP
Assay: In-Vitro Platelet Aggregation in PRP (ADP induced)
Type: cell-based
Conditions: Canis lupus familiaris, ADP 50 μm, 37° C.
Procedure: In-Vitro Platelet Aggregation in PRP […] Healthy male or female dogs were fasted for 8 hours prior to drawing blood; then 30 ml whole blood was collected using a butterfly needle and 30 cc plastic syringe with 3 ml of 0.129M buffered sodium citrate (3.8%). […] 50 μl of adenosine 5'diphosphate (ADP) (50 μm final concentration) was added to the cuvettes and the aggregation was monitored for 1 minute. […] Results are calculated as follows: […]
Where a name gives a salt, the structure may show the parent alone.
# strict inequality: IC50 < 400 nM yields Yes, everything else yields No

N=C(N)c1ccc(CCCCC(=O)N[C@@H](CC(=O)O)C(=O)N(CCC(=O)O)CCc2ccccc2)cc1; No
N=C(N)c1ccc(C#CCCC(=O)N[C@@H](CC(=O)O)C(=O)N[C@@H](Cc2ccccc2)C(=O)O)cc1; Yes
N=C(N)c1ccc(CCCCC(=O)N[C@@H](CC(=O)O)C(=O)N[C@@H](Cc2ccccc2)C(=O)O)cc1 [acetate salt]; Yes
N=C(N)c1ccc2cc(CCC(=O)N[C@@H](CC(=O)O)C(=O)N[C@@H](Cc3ccccc3)C(=O)O)ccc2c1; No
N=C(N)c1ccc2cc(OCC(=O)N[C@@H](CC(=O)O)C(=O)N[C@@H](Cc3ccccc3)C(=O)O)ccc2c1; No
N=C(N)c1ccc(CC(=O)CCC(=O)N[C@@H](CC(=O)O)C(=O)N[C@@H](Cc2ccccc2)C(=O)O)cc1; Yes
N=C(N)c1ccc(CCCCC(=O)N[C@@H](CC(=O)O)C(=O)NCCc2ccccc2)cc1; No
CC(C)[C@H](NC(=O)[C@H](CC(=O)O)NC(=O)CCCCc1ccc(C(=N)N)cc1)C(=O)O; Yes
CN(CC(=O)N[C@@H](CC(=O)O)C(=O)N[C@@H](Cc1ccccc1)C(=O)O)C(=O)CCc1ccc(C(=N)N)cc1; No
N=C(N)c1ccc(/C=C\CCC(=O)N[C@@H](CC(=O)O)C(=O)N[C@@H](Cc2ccccc2)C(=O)O)cc1; No
COc1ccc(CCNC(=O)[C@H](CC(=O)O)NC(=O)CCCCc2ccc(C(=N)N)cc2)cc1; No
N=C(N)c1ccc(CCCCC(=O)N[C@@H](CC(=O)O)C(=O)N(CCC(=O)O)Cc2ccccc2)cc1; No
N=C(N)c1ccc(/C=C/CCC(=O)N[C@@H](CC(=O)O)C(=O)N[C@@H](Cc2ccccc2)C(=O)O)cc1; Yes
CN(C(=O)[C@H](CC(=O)O)NC(=O)CCCCc1ccc(C(=N)N)cc1)[C@@H](Cc1ccccc1)C(=O)O; No
N=C(N)c1ccc(CCCCC(=O)N[C@@H](CC(=O)O)C(=O)NCCc2c[nH]c3ccccc23)cc1; Yes
N=C(N)c1cccc(/C=C\CCCC(=O)N[C@@H](CC(=O)O)C(=O)N[C@@H](Cc2ccccc2)C(=O)O)c1; No
CC(C)CNC(=O)[C@H](CC(=O)O)NC(=O)CCCCc1ccc(C(=N)N)cc1; No
